System: DENV-2 16681 strain
Assay: DENV-2 antiviral assay (eGFP-labeled virus in Vero cells)
Assay type: cell-based, Dengue virus
Details: DENV-2 16681 eGFP, MOI 0.5, 3 days, listed as 5A
measure: EC50 (nM)
Numbers only, in nM.

Input: # get_value(readout='EC50', item= COc1cc(NC(C(=O)c2c[nH]c3cc(OC)ccc23)c2ccc(F)cc2OC)cc(S(C)(=O)=O)c1 (single isomer, unassigned) [Enantiomer 5A] )
Output: 70

====

Test: in vitro
Assay type: cell-based
Conditions: African green monkey, CC50
Binary call on CC50 with cut-off 8 µM: strictly below means true (1), and equality or higher means false (0).

Worked set:
1) COc1cc(NC(C(=O)c2c[nH]c3c(F)c(F)ccc23)c2ccc(F)cc2OC)cc(S(C)(=O)=O)c1 (single isomer, unassigned) [Enantiomer 13A] | false (0)
2) COc1cc(NC(C(=O)c2c[nH]c3cc(F)c(C)cc23)c2ccc(F)cc2OC)cc(S(C)(=O)=O)c1 (racemic) | true (1)
3) COc1cc(NC(C(=O)c2c[nH]c3c(Cl)c(OC)ccc23)c2ccc(F)cc2OC)cc(S(C)(=O)=O)c1 (racemic) [Compound 12] | false (0)
4) COc1cc(NC(C(=O)c2c[nH]c3cc(F)ccc23)c2ccc(F)cc2OC)cc(S(C)(=O)=O)c1 (racemic) | false (0)

Could you now look at the following molecule, please?
Input: In plain terms, does COc1cc(NC(C(=O)c2c[nH]c3c(C)c(Cl)ccc23)c2ccc(F)cc2OC)cc(S(C)(=O)=O)c1 (racemic) come in under 8 µM for CC50?
Output: true (1)
